Target: HLA-B*51:01
Experiment: IEDB peptide-MHC binding, purified MHC/competitive/fluorescence; filed as Kd, often an IC50 or EC50 that approximates it; bounds were set here for any values at or beyond the usual limits of such assays
Details: source organism: Yersinia pestis Nepal516
assay readout: Kd (nM)
Just the number in nM, nothing appended.

Entry LPLNRAYPL needs its Kd filled in; supply it.
2570

###

Target: HLA-B*07:02
Assay: IEDB peptide-MHC binding, purified MHC/direct/fluorescence; filed as Kd, often an IC50 or EC50 that approximates it; bounds were set here for any values at or beyond the usual limits of such assays
Conditions: source organism: Coxiella burnetii
assay readout: Kd (µM)
Just the number in µM, nothing appended.

Entry WAPEGDIRL needs its Kd filled in; supply it.
4.29

###

Target: HLA-B*15:01
Experiment: IEDB peptide-MHC binding, purified MHC/competitive/fluorescence; filed as Kd, often an IC50 or EC50 that approximates it; bounds were set here for any values at or beyond the usual limits of such assays
Details: source organism: Vibrio parahaemolyticus AQ3810
assay readout: Kd

Entry MLTNASGHA needs its Kd filled in; supply it.
≥ 20 µM

###

Target: HLA-A*30:01
Experiment: IEDB peptide-MHC binding, purified MHC/competitive/radioactivity; filed as Kd, often an IC50 or EC50 that approximates it; bounds were set here for any values at or beyond the usual limits of such assays
Conditions: source organism: Mammarenavirus guanaritoense
assay readout: pKd
Just the number, please; pKd means minus log10 of the concentration in mol/L.

Entry ILNFVAHVY needs its pKd filled in; supply it.
5.50

###

Biological target: HLA-B*07:02
Assay: IEDB peptide-MHC binding, purified MHC/competitive/fluorescence; filed as Kd, often an IC50 or EC50 that approximates it; bounds were set here for any values at or beyond the usual limits of such assays
Conditions: source organism: Influenza A virus (A/Denver/1957(H1N1))
assay readout: Kd (nM)
Just the number in nM, nothing appended.

Entry RIRFVQNAL needs its Kd filled in; supply it.
19.9

###

Target: HLA-A*02:17
Assay: IEDB peptide-MHC binding, purified MHC/competitive/radioactivity; filed as Kd, often an IC50 or EC50 that approximates it; bounds were set here for any values at or beyond the usual limits of such assays
Conditions: source organism: Dengue virus 1 Singapore/S275/1990
Below, each entry is listed alongside its reported Kd.
Just the number in nM, nothing appended.

FMNEDHWFS; 244
SLSMTCIAV; 49.1

Now look at this one.
Entry LLLTIGLSLV needs its Kd filled in; supply it.
2620

###

Molecular target: HLA-B*15:01
Experiment: IEDB peptide-MHC binding, purified MHC/competitive/radioactivity; filed as Kd, often an IC50 or EC50 that approximates it; bounds were set here for any values at or beyond the usual limits of such assays
Settings: source organism: Dengue virus 1 Brazil/97-11/1997
assay readout: Kd (nM)
Just the number in nM, nothing appended.

Entry LMTGTLAVF needs its Kd filled in; supply it.
0.4

###

Molecular target: HLA-B*07:02
Assay: IEDB peptide-MHC binding, purified MHC/direct/fluorescence; filed as Kd, often an IC50 or EC50 that approximates it; bounds were set here for any values at or beyond the usual limits of such assays
Details: source organism: Brucella abortus
pKd: −log10 of the molar value.
assay readout: pKd

System HLA-B*07:02. Read-out pKd. Item AENGWGFYF . Report value.
≤ 4.70
